- Target: T1, recombinant human IGSF8 extracellular domain tagged by a human Fc region (IGSF8-hFc) (human, UniProt Q969P0 28-579, biotin label in Examples 17, 18 and 28 (site not given))
- T1 construct: also called IGSF8-Fc fusion protein; IGSF8-hFc-biotin; not shown: human Fc region
- T1 sequence: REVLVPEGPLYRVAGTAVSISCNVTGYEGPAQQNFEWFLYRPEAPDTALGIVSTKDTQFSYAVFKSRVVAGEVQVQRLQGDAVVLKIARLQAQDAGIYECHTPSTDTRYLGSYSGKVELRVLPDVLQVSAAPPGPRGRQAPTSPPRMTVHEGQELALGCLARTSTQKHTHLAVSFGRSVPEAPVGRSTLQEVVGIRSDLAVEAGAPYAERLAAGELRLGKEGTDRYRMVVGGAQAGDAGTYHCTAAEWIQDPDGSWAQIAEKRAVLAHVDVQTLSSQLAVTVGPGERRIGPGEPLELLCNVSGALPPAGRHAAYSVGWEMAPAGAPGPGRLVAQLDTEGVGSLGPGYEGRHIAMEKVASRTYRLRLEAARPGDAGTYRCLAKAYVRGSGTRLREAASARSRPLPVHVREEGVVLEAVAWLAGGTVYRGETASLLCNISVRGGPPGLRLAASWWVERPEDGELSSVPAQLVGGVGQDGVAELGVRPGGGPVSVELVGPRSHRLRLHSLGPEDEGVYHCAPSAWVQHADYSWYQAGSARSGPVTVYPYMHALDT
- Method Notes: SPR, Ab captured
Threshold-based label: koff under 0.0008 s⁻¹ gives fulfilled, koff not under 0.0008 s⁻¹ gives not fulfilled.

Consider the following illustrative entries.
* L1VL-Y91F (antibody, V domains shown) VH: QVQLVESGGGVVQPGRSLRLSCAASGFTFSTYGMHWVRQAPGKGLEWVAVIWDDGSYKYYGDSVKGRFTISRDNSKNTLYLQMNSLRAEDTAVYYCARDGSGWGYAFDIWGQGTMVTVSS VL: DIQLTQSPSSLSASVGDRVTITCQASQDISEYLNWYQHKPGKAPNPLVFDAANLETGVPPRFSATGSGTDFSLTITSLQPEDFATYYCQQFDSFPYTFGQGTRLDIK | not fulfilled
* L1-32 (antibody, V domains shown) VH: QVQLVESGGGVVQPGRSLRLSCAASGFTFSTYGMHWVRQAPGKGLEWVAVIWDGGSYKYYGDSVKGRFTISRDNSKNTLYLQMNSLRAEDTAVYYCARDGSGWGYAFDIWGQGTLVTVSS VL: DIQLTQSPSSLSASVGDRVTITCQASQDIGPWLNWYQHKPGKAPKPLVFGSPNLETGVPSRFSASGSGTDFTLTISSLQPEDFATYYCQQYDSFPYTFGQGTKVEIK | fulfilled
* L2-10 (antibody, V domains shown, also called L2-10-IgG1) VH: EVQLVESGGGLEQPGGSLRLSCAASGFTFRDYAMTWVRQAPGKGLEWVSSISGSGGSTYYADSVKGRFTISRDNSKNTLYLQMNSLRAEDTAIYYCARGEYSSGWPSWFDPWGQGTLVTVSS VL: DIQMTQSPSSLSASVGDRVTITCRASRTVGTFLNWYQQKPGKAPKALILHTSILEGGVPSRFSGSGSGTDFTLTISSLQPEDIATYYCQQSHDVPRTFGQGTKVEIK | fulfilled
* L2-03 (antibody, V domains shown) VH: EVQLVESGGGLEQPGGSLRLSCAGSGFTFRDYAMTWVRQAPGKGLEWVSSISGSGGSTYYADSVKGRFTISRDNSKNTLYLQMNSLRAEDTAIYYCARGEYSSGWPSWFDPWGQGTLVTVSS VL: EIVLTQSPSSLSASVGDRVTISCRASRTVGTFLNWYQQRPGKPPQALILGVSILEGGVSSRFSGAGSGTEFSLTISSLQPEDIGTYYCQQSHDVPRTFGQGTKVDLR | fulfilled
* L1-06 (antibody, V domains shown) VH: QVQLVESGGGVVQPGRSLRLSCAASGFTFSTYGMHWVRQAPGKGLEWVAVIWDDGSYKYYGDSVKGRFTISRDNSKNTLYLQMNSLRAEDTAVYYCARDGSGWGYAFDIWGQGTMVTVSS VL: DIQLTQSPSSLSASVGDRVTITCQASQDIGPWLNWYQHKPGKAPNPLVFDAANLETGVPPRFSATGSGTDFSLTITSLQPEDFATYYCQQYDSFPYTFGQGTRLDIK | not fulfilled
* L1-08 (antibody, V domains shown) VH: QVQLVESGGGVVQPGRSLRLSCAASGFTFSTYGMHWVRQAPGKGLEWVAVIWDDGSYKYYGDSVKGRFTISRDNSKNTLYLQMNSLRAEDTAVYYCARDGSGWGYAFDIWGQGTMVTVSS VL: DIQLTQSPSSLSASVGDRVTITCQASQDIGAYLNWYQHKPGKAPNPLVFDAANLETGVPPRFSATGSGTDFSLTITSLQPEDFATYYCQQYDSFPYTFGQGTRLDIK | not fulfilled

Prompt: I'd appreciate it if you could check whether L1-33 (antibody, V domains shown) VH: QVQLVESGGGVVQPGRSLRLSCAASGFTFSTYGMHWVRQAPGKGLEWVAVIWDGGKYKYYGDSVKGRFTISRDNSKNTLYLQMNSLRAEDTAVYYCARDGSGWGYAFDIWGQGTLVTVSS VL: DIQLTQSPSSLSASVGDRVTITCQASQDIGPWLNWYQHKPGKAPKPLVFGSPNLETGVPSRFSASGSGTDFTLTISSLQPEDFATYYCQQYDSFPYTFGQGTKVEIK has koff smaller than 0.0008 s⁻¹.
Completion: fulfilled

Prompt: I'd appreciate it if you could check whether L1VH-D99N (antibody, V domains shown) VH: QVQLVESGGGVVQPGRSLRLSCAASGFTFSTYGMHWVRQAPGKGLEWVAVIWDDGSYKYYGDSVKGRFTISRDNSKNTLYLQMNSLRAEDTAVYYCARNGSGWGYAFDIWGQGTMVTVSS VL: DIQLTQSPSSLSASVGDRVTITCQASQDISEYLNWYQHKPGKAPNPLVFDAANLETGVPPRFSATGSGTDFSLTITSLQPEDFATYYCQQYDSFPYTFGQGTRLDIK has koff smaller than 0.0008 s⁻¹.
Completion: not fulfilled

Prompt: I'd appreciate it if you could check whether L1-11 (antibody, V domains shown) VH: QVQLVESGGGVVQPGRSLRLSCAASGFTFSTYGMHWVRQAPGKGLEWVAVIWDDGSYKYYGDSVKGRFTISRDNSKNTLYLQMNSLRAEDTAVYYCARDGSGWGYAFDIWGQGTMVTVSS VL: DIQLTQSPSSLSASVGDRVTITCQASQDIEWALNWYQHKPGKAPNPLVFDAANLETGVPPRFSATGSGTDFSLTITSLQPEDFATYYCQQYDSFPYTFGQGTRLDIK has koff smaller than 0.0008 s⁻¹.
Completion: not fulfilled
